Where these numbers come from: patent US9670172B2

Test: PK parameters for representative compounds (i.v. and p.o.)
Conditions: in vivo, iv; i.v. @ 2 mg/kg
property: AUC(0-t) (µM·h)
Numbers only, in µM·h.

# example entries with known answers
{"columns": ["chemical_smiles", "unit_tag", "AUC(0-t)"],
 "data": [
  ["O=S(=O)(Nc1ccc(-c2csc(-c3ccnc(N4CCCCC4)c3)n2)c(Cl)c1)C(F)(F)F", "µM·h", 0.655],
  ["O=S(=O)(Nc1ccc(-c2csc(-c3ccnc(Cc4ccccc4)c3)n2)c(Cl)c1)C(F)(F)F", "µM·h", 12.6],
  ["O=S(=O)(Nc1ccc(-c2csc(-c3ccc4c(c3)CCO4)n2)c(Cl)c1)C(F)(F)F", "µM·h", 25.4],
  ["O=S(=O)(Nc1ccc(-c2csc(-c3cccc(N4CCCCC4)c3)n2)c(Cl)c1)C(F)(F)F", "µM·h", 10.6],
  ["O=S(=O)(Nc1ccc(-c2csc(-c3ccnc(CCC(F)(F)F)c3)n2)c(Cl)c1)C(F)(F)F", "µM·h", 38.5],
  ["O=S(=O)(Nc1ccc(-c2csc(-c3ccnc(CC4CCCCC4)c3)n2)c(Cl)c1)C(F)(F)F", "µM·h", 2.2]
]}

Fill in AUC(0-t) for each of the 2 compounds listed.
1. O=S(=O)(Nc1ccc(-c2csc(-c3cccc4ccccc34)n2)c(Cl)c1)C(F)(F)F
2. O=S(=O)(Nc1ccc(-c2csc(-c3cccc4[nH]ccc34)n2)c(Cl)c1)C(F)(F)F

Out:
13.6
8.94

----------
System: SREBP2
Test: SREBP2 cleavage in HEPG2 cells (Western blot normalized to actin)
Format: cell-based
Details: Homo sapiens, 24 h; 20 μM, HepG2 cells, 1 day, DMEM without FBS; read-out: Average SREBP2 cleavage (% Inhibition, n = 3)
property: inhibition at 20 µM (%)
Numbers only, in %.

Examples with their reported inhibition at 20 µM follow.
{"columns": ["molecule", "result_value"],
 "data": [
  ["CCCc1cc(-c2nc(-c3ccc(NS(=O)(=O)C(F)(F)F)c(OC)c3)cs2)ccn1 [Compound 58]", 29.4],
  ["COc1cc(-c2csc(-c3ccnc(CC(C)C)c3)n2)ccc1NS(=O)(=O)C(F)(F)F [Compound 57]", 46.9],
  ["CC(C)Cc1cc(-c2nc(-c3ccc(NS(=O)(=O)C(F)(F)F)cc3Cl)cs2)ccn1 [Compound 37]", 94.6],
  ["COc1cc(-c2csc(-c3ccnc(C(C)(C)C)c3)n2)ccc1NS(=O)(=O)C(F)(F)F [Compound 59]", 60.6],
  ["O=C(c1ccc(-c2nc(-c3ccc(NS(=O)(=O)C(F)(F)F)cc3Cl)cs2)cc1)N1CCCCC1 [Compound 67]", 3]
]}

Quick request: inhibition at 20 µM for each listed item, please.
1. CCCc1cc(-c2nc(-c3ccc(NS(=O)(=O)C(F)(F)F)cc3)cs2)ccn1 [Compound 1]
2. O=S(=O)(Nc1ccc(-c2csc(-c3ccnc(Cc4ccccc4)c3)n2)c(Cl)c1)C(F)(F)F [Compound 60]
3. O=S(=O)(Nc1ccc(-c2csc(-c3ccnc(NS(=O)(=O)C(F)(F)F)c3)n2)c(Cl)c1)C(F)(F)F [Compound 66]

Out:
[73.7, 99, 0]

----------
Test: PK parameters for representative compounds (i.v. and p.o.)
Details: in vivo, po; p.o. @ 10 mg/kg
property: bioavailability (%)
Give bare numbers, in %.

{"columns": ["compound", "bioavailability [%]"],
 "data": [
  ["O=S(=O)(Nc1ccc(-c2csc(-c3ccnc(Cc4ccccc4)c3)n2)c(Cl)c1)C(F)(F)F [Compound 60]", 90.2]
]}

Hello, I would appreciate it if you could give bioavailability for each entry below.
1. O=S(=O)(Nc1ccc(-c2csc(-c3ccnc(CCC(F)(F)F)c3)n2)c(Cl)c1)C(F)(F)F [Compound 64]
2. O=S(=O)(Nc1ccc(-c2csc(-c3ccnc(CC4CCCCC4)c3)n2)c(Cl)c1)C(F)(F)F [Compound 70]
3. O=S(=O)(Nc1ccc(-c2csc(-c3cccc(N4CCCCC4)c3)n2)c(Cl)c1)C(F)(F)F [Compound 88]

Out:
1: 273; 2: 46.4; 3: 96.8

----------
Assay: Solubility study at different pH (Pion, Inc.)
Format: physicochemical
Conditions: aqueous buffer; pH 8.0
property: solubility

In: What value of solubility has been reported for the following compound? CC(C)Cc1cc(-c2nc(-c3ccc(NS(=O)(=O)C(F)(F)F)cc3Cl)cs2)ccn1 [Compound 37]
Out: > 0.13 mg/mL

----------
Assay: PK parameters for representative compounds (i.v. and p.o.)
Details: in vivo, po; p.o. @ 10 mg/kg
property: Tmax (h)
Numbers only, in h.

Study these solved cases before continuing.
{"columns": ["molecule", "Tmax, h"],
 "data": [
  ["O=S(=O)(Nc1ccc(-c2csc(-c3cccc4[nH]ccc34)n2)c(Cl)c1)C(F)(F)F [Compound 80]", 4],
  ["O=S(=O)(Nc1ccc(-c2csc(-c3ccnc(CCC(F)(F)F)c3)n2)c(Cl)c1)C(F)(F)F [Compound 64]", 24],
  ["O=S(=O)(Nc1ccc(-c2csc(-c3cccc4ccccc34)n2)c(Cl)c1)C(F)(F)F [Compound 71]", 4],
  ["O=S(=O)(Nc1ccc(-c2csc(-c3ccc4c(c3)CCO4)n2)c(Cl)c1)C(F)(F)F [Compound 82]", 4]
]}

Quick one: give me Tmax for each item below, same order please.
1. O=S(=O)(Nc1ccc(-c2csc(-c3cccc(N4CCCCC4)c3)n2)c(Cl)c1)C(F)(F)F [Compound 88]
2. O=S(=O)(Nc1ccc(-c2csc(-c3ccnc(CC4CCCCC4)c3)n2)c(Cl)c1)C(F)(F)F [Compound 70]
3. O=S(=O)(Nc1ccc(-c2csc(-c3ccnc(N4CCCCC4)c3)n2)c(Cl)c1)C(F)(F)F [Compound 85]
4. O=S(=O)(Nc1ccc(-c2csc(-c3ccnc(Cc4ccccc4)c3)n2)c(Cl)c1)C(F)(F)F [Compound 60]

Out:
1: 2; 2: 0.5; 3: 2; 4: 4

----------
Test system: HepG2 cells
Test: HepG2 cell viability by MTS
Format: cell-based
Conditions: Homo sapiens, several concentrations, FIG. 1
property: IC50
In your response, the unit should come after the numeric value.

In: Any idea what IC50 was measured for `CC(C)Cc1cc(-c2nc(-c3ccc(NS(=O)(=O)C(F)(F)F)cc3Cl)cs2)ccn1` ?
Out: 2150 nM

----------
Assay: PK parameters for representative compounds (i.v. and p.o.)
Settings: in vivo, iv; i.v. @ 2 mg/kg
Source text: Standard PK parameters were collected in Mouse and Dog for Compound #37 in mouse (FIG. 4A) and dog (FIG. 4B).
property: Vd (L/kg)
Answers are plain numbers, in L/kg.

{"columns": ["chemical_smiles", "property", "result_value"],
 "data": [
  ["O=S(=O)(Nc1ccc(-c2csc(-c3ccnc(N4CCCCC4)c3)n2)c(Cl)c1)C(F)(F)F", "Vd", 27.3],
  ["O=S(=O)(Nc1ccc(-c2csc(-c3ccnc(CCC(F)(F)F)c3)n2)c(Cl)c1)C(F)(F)F", "Vd", 1.95],
  ["O=S(=O)(Nc1ccc(-c2csc(-c3cccc4ccccc34)n2)c(Cl)c1)C(F)(F)F", "Vd", 1.27],
  ["O=S(=O)(Nc1ccc(-c2csc(-c3cccc(N4CCCCC4)c3)n2)c(Cl)c1)C(F)(F)F", "Vd", 1.45],
  ["O=S(=O)(Nc1ccc(-c2csc(-c3ccnc(Cc4ccccc4)c3)n2)c(Cl)c1)C(F)(F)F", "Vd", 1.28]
]}

Below are some compounds; for each one, tell me its Vd.
1. O=S(=O)(Nc1ccc(-c2csc(-c3cccc4[nH]ccc34)n2)c(Cl)c1)C(F)(F)F
2. O=S(=O)(Nc1ccc(-c2csc(-c3ccnc(CC4CCCCC4)c3)n2)c(Cl)c1)C(F)(F)F
3. O=S(=O)(Nc1ccc(-c2csc(-c3ccc4c(c3)CCO4)n2)c(Cl)c1)C(F)(F)F

Out:
1.72
5.22
0.719

----------
Experiment: HepG2 cell viability by MTS
Type: cell-based
Conditions: human; 5 μM, HepG2 cells, 3 days, DMEM without FBS, MTS; read-out: Average Viability (% Inhibition, n = 3)
Field 'label' (enum: label 1 / label 0). Set to label 1 when cytotoxicity at 3 days, 5 μM is strictly under 90%; else label 0.

Previously resolved entries follow.
{"columns": ["chemical_smiles", "classification"],
 "data": [
  ["O=S(=O)(Nc1ccc(-c2csc(-c3cccc4ccccc34)n2)c(Cl)c1)C(F)(F)F", "label 0"],
  ["O=S(=O)(Nc1ccc(-c2csc(-c3ccnc(CC4CCCCC4)c3)n2)c(Cl)c1)C(F)(F)F", "label 0"],
  ["Cc1ccc(S(=O)(=O)Nc2cccc(-c3nc(-c4ccc(NS(=O)(=O)C(F)(F)F)cc4Cl)cs3)c2)cc1", "label 1"],
  ["Cc1noc(C)c1-c1nc(-c2ccc(NS(=O)(=O)C(F)(F)F)cc2Cl)cs1", "label 1"],
  ["O=S(=O)(Nc1ccc(-c2csc(-c3ccnc(N4CCCCC4)c3)n2)c(Cl)c1)C(F)(F)F", "label 0"],
  ["O=S(=O)(Nc1ccc(-c2csc(-c3ccccc3CO)n2)c(Cl)c1)C(F)(F)F", "label 1"],
  ["O=S(=O)(Nc1ccc(-c2csc(-c3ccccc3-c3ccccc3)n2)c(Cl)c1)C(F)(F)F", "label 0"],
  ["Cc1cnccc1-c1nc(-c2ccc(NS(=O)(=O)C(F)(F)F)cc2Cl)cs1", "label 1"]
]}

In: Item `O=S(=O)(Nc1ccc(-c2csc(-c3ccc4cc[nH]c4c3)n2)c(Cl)c1)C(F)(F)F` : cytotoxicity at 3 days, 5 μM beneath 90%, strictly?
Out: label 0

In: cytotoxicity at 3 days, 5 μM under 90%? Item: `CN1CCN(c2cc(-c3nc(-c4ccc(NS(=O)(=O)C(F)(F)F)cc4Cl)cs3)ccn2)CC1`
Out: label 1

In: Is the reported cytotoxicity at 3 days, 5 μM for `O=S(=O)(Nc1ccc(-c2csc(-c3cccc4[nH]ccc34)n2)c(Cl)c1)C(F)(F)F` strictly below 90%?
Out: label 1

In: Quick check: cytotoxicity at 3 days, 5 μM of `O=S(=O)(Nc1ccc(-c2csc(-c3ccc(C(F)(F)F)c(OCc4ccccc4)c3)n2)c(Cl)c1)C(F)(F)F` under 90%?
Out: label 0

In: Check if cytotoxicity at 3 days, 5 μM falls below 90% for `O=S(=O)(Nc1ccc(-c2csc(-c3ccnc4[nH]ccc34)n2)c(Cl)c1)C(F)(F)F` .
Out: label 1

In: Is the reported cytotoxicity at 3 days, 5 μM for `O=S(=O)(Nc1ccc(-c2csc(-c3cccc(N4CCCCC4)c3)n2)c(Cl)c1)C(F)(F)F` strictly below 90%?
Out: label 1
